- EXPERIMENTAL SYSTEM: AR in VCaP cells (Homo sapiens)
- Construct: endogenous in cells; host or cells: VCaP cells
- TEST DETAILS: VCAP AR Degradation Assay (AR ELISA, 24 h)
- Format: cell-based
- CONDITION INFO: concentration giving 50% AR degradation vs DMSO control
Where a name gives a salt, the structure may show the parent alone.
RESULT TYPE: DC50

Below, 4 molecules whose answers are already recorded.
CC1(C)C(=O)N(c2cnc(C#N)c(C(F)(F)F)c2)C(=S)N1[C@H]1CC[C@H](CCCN2CCN(CC(=O)Nc3ccc(C4CCC(=O)NC4=O)nc3)[C@@H](C(F)(F)F)C2)CC1 (some centres unmarked) = ≤ 5 nM
C[C@@H]1CN(CCC[C@H]2CC[C@H](N3C(=S)N(c4cnc(C#N)c(Cl)c4)C(=O)C3(C)C)CC2)C[C@H](C)N1CC(=O)Nc1ccc(C2CCC(=O)NC2=O)nc1 (some centres unmarked) [Cmpd 11, hydrochloride] = ≤ 5 nM
CC1(C)C(=O)N(c2cnc(C#N)c(C(F)(F)F)c2)C(=S)N1[C@H]1CC[C@H](OCCC2CCN(CC(=O)Nc3ccc(C4CCC(=O)NC4=O)nc3)CC2(F)F)CC1 (some centres unmarked) = ≤ 5 nM
CC1(C)C(=O)N(c2cnc(C#N)c(C(F)(F)F)c2)C(=S)N1[C@H]1CC[C@H](OCCCN2CCN(CC(=O)Nc3ccc(C4CCC(=O)NC4=O)nc3)[C@@H](C(F)(F)F)C2)CC1 (some centres unmarked) = ≤ 5 nM

Next item in the queue.
QUERY: Consider the molecule C[C@@H]1C[C@H](OCCC[C@H]2CC[C@H](N3C(=S)N(c4ccc(C#N)c(C(F)(F)F)c4)C(=O)C3(C)C)CC2)C[C@H](C)N1CC(=O)Nc1ccc(C2CCC(=O)NC2=O)nc1 (some centres unmarked) and give its measured DC50.
RESULT: 5 to 10 nM

====

- EXPERIMENTAL SYSTEM: AR in VCaP cells (Homo sapiens, UniProt P10275)
- Construct: endogenous in cells; host or cells: VCaP cells
- Sequence (P10275 whole entry): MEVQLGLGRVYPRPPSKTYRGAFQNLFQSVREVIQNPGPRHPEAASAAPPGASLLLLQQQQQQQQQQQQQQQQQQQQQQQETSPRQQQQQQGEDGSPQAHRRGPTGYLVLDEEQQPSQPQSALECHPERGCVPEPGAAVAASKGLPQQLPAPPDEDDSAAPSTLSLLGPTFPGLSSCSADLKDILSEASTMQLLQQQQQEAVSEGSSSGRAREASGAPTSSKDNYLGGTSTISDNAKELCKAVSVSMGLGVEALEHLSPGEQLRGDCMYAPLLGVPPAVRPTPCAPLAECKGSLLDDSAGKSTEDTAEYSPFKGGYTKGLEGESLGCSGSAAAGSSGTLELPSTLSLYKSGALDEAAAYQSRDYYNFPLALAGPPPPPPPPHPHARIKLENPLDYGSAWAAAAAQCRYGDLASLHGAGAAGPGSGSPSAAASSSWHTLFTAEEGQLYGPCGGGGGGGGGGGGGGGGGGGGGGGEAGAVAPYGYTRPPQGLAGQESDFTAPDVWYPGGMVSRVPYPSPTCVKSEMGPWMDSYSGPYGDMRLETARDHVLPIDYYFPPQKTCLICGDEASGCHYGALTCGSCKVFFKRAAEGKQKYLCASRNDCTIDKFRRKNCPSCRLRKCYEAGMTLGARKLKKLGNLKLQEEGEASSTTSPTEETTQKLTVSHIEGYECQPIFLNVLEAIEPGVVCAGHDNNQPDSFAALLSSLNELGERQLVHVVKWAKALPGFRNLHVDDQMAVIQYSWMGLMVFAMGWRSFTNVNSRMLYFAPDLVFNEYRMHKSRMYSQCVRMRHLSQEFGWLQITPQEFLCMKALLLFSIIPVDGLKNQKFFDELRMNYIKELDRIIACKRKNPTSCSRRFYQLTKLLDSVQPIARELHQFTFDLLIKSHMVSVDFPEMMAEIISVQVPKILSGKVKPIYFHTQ
- TEST DETAILS: VCAP AR Degradation Assay (AR ELISA, 24 h)
- Format: cell-based
- CONDITION INFO: lowest measured AR level normalized to DMSO control, top concentration 5 μM, read-out: Y
Where a name gives a salt, the structure may show the parent alone.
Listing of recorded remaining activity at up to 5 µM by entry.

Below, 2 molecules whose answers are already recorded.
C[C@@H]1C[C@H](OCCC[C@H]2CC[C@H](N3C(=S)N(c4cnc(C#N)c(C(F)(F)F)c4)C(=O)C3(C)C)CC2)C[C@H](C)N1CC(=O)Nc1ccc(C2CCC(=O)NC2=O)nc1 (stereo partly drawn) [Cmpd 26] = 0 to 20%
C[C@@H]1C[C@@H](CCO[C@H]2CC[C@H](N3C(=S)N(c4ccc(C#N)c(C(F)(F)F)c4)C(=O)C3(C)C)CC2)C[C@H](C)N1CC(=O)Nc1ccc(C2CCC(=O)NC2=O)nc1 (stereo partly drawn) [Cmpd 14, hydrochloride] = 20 to 30%

QUERY: Consider the molecule C[C@@H]1C[C@H](CCO[C@H]2CC[C@H](N3C(=S)N(c4ccc(C#N)c(C(F)(F)F)c4)C(=O)C3(C)C)CC2)C[C@H](C)N1CC(=O)Nc1ccc(C2CCC(=O)NC2=O)nc1 (stereo partly drawn) [Cmpd 17] and give its measured remaining activity at up to 5 µM.
RESULT: 20 to 30%

QUERY: Consider the molecule C[C@@H]1CN(CCCO[C@H]2CC[C@H](N3C(=S)N(c4ccc(C#N)c(Cl)c4)C(=O)C3(C)C)CC2)C[C@H](C)N1CC(=O)Nc1ccc(C2CCC(=O)NC2=O)nc1 (stereo partly drawn) [Cmpd 7, hydrochloride] and give its measured remaining activity at up to 5 µM.
RESULT: 0 to 20%

QUERY: Consider the molecule CC1(C)C(=O)N(c2ccc(C#N)c(C(F)(F)F)c2)C(=S)N1[C@H]1CC[C@H](OCCN2CCN(CC(=O)Nc3ccc(C4CCC(=O)NC4=O)nc3)[C@@H](C(F)(F)F)C2)CC1 (stereo partly drawn) [Cmpd 13, hydrochloride] and give its measured remaining activity at up to 5 µM.
RESULT: 20 to 30%

QUERY: Consider the molecule C[C@@H]1C[C@H](CCO[C@H]2CC[C@H](N3C(=S)N(c4cnc(C#N)c(C(F)(F)F)c4)C(=O)C3(C)C)CC2)C[C@H](C)N1CC(=O)Nc1ccc(C2CCC(=O)NC2=O)nc1 (stereo partly drawn) [Cmpd 18] and give its measured remaining activity at up to 5 µM.
RESULT: 0 to 20%

QUERY: Consider the molecule C[C@@H]1C[C@@H](CCO[C@H]2CC[C@H](N3C(=S)N(c4cnc(C#N)c(C(F)(F)F)c4)C(=O)C3(C)C)CC2)C[C@H](C)N1CC(=O)Nc1ccc(C2CCC(=O)NC2=O)nc1 (stereo partly drawn) [Cmpd 19] and give its measured remaining activity at up to 5 µM.
RESULT: 20 to 30%

====

- EXPERIMENTAL SYSTEM: AR in VCaP cells (Homo sapiens)
- Construct: endogenous in cells; host or cells: VCaP cells
- TEST DETAILS: VCAP AR Degradation Assay (AR ELISA, 24 h)
- Type: cell-based
- CONDITION INFO: concentration giving 50% AR degradation vs DMSO control
Where a name gives a salt, the structure may show the parent alone.
Listing of recorded DC50 by entry.

Below, 2 compounds whose answers are already recorded.
C[C@@H]1C[C@H](OCCC[C@H]2CC[C@H](N3C(=S)N(c4cnc(C#N)c(C(F)(F)F)c4)C(=O)C3(C)C)CC2)C[C@H](C)N1CC(=O)Nc1ccc(C2CCC(=O)NC2=O)nc1 (some centres unmarked) = ≤ 5 nM
C[C@@H]1CN(CCCC[C@H]2CC[C@H](N3C(=S)N(c4ccc(C#N)c(C(F)(F)F)c4)C(=O)C3(C)C)CC2)C[C@H](C)N1CC(=O)Nc1ccc(C2CCC(=O)NC2=O)nc1 (some centres unmarked) = ≤ 5 nM

QUERY: Consider the compound C[C@@H]1C[C@@H](CCO[C@H]2CC[C@H](N3C(=S)N(c4cnc(C#N)c(C(F)(F)F)c4)C(=O)C3(C)C)CC2)C[C@H](C)N1CC(=O)Nc1ccc(C2CCC(=O)NC2=O)nc1 (some centres unmarked) and give its measured DC50.
RESULT: ≤ 5 nM

QUERY: Consider the compound CC1(C)C(=O)N(c2ccc(C#N)c(C(F)(F)F)c2)C(=S)N1[C@H]1CC[C@H](CCCN2CCN(CC(=O)Nc3ccc(C4CCC(=O)NC4=O)nc3)[C@@H](C(F)(F)F)C2)CC1 (some centres unmarked) and give its measured DC50.
RESULT: 10 to 100 nM

QUERY: Consider the compound C[C@@H]1CN(CCCO[C@H]2CC[C@H](N3C(=S)N(c4ccc(C#N)c(Cl)c4)C(=O)C3(C)C)CC2)C[C@H](C)N1CC(=O)Nc1ccc(C2CCC(=O)NC2=O)nc1 (some centres unmarked) [Cmpd 7, hydrochloride] and give its measured DC50.
RESULT: ≤ 5 nM

====

- EXPERIMENTAL SYSTEM: AR in VCaP cells (Homo sapiens, UniProt P10275)
- Construct: endogenous in cells; host or cells: VCaP cells
- TEST DETAILS: VCAP AR Degradation Assay (AR ELISA, 24 h)
- Assay type: cell-based
- CONDITION INFO: lowest measured AR level normalized to DMSO control, top concentration 5 μM, read-out: Y
- Experimental: VCAP AR Degradation Assay. Test compounds were pre-dispensed into a Corning CellBind 96-well clear bottom plate (Cat #3300) using an acoustic dispenser to make a 10-point concentration series at 1:3 dilution for each compound. The final top concentration of each compound was 5 μM. DMSO at a final concentration of 0.1% was used as a control. […] AR levels in compound-treated wells were normalized to that of DMSO control and expressed as percent of control (PoC) (y). […]
Counter-ions that a name gives are not always drawn.
RESULT TYPE: remaining activity at up to 5 µM

C[C@@H]1CN(CCO[C@H]2CC[C@H](N3C(=S)N(c4ccc(C#N)c(C(F)(F)F)c4)C(=O)C3(C)C)CC2)C[C@H](C)N1CC(=O)Nc1ccc(C2CCC(=O)NC2=O)nc1 (some centres unmarked) [Cmpd 2, hydrochloride] = 30 to 70%

QUERY: Consider the compound C[C@@H]1C[C@H](OCCC[C@H]2CC[C@H](N3C(=S)N(c4ccc(C#N)c(C(F)(F)F)c4)C(=O)C3(C)C)CC2)C[C@H](C)N1CC(=O)Nc1ccc(C2CCC(=O)NC2=O)nc1 (some centres unmarked) [Cmpd 20] and give its measured remaining activity at up to 5 µM.
RESULT: 20 to 30%

QUERY: Consider the compound CC1(C)C(=O)N(c2cnc(C#N)c(C(F)(F)F)c2)C(=S)N1[C@H]1CC[C@H](CCCN2CCN(CC(=O)Nc3ccc(C4CCC(=O)NC4=O)nc3)[C@@H](C(F)(F)F)C2)CC1 (some centres unmarked) [Cmpd 21] and give its measured remaining activity at up to 5 µM.
RESULT: 0 to 20%

QUERY: Consider the compound C[C@@H]1C[C@H](OCC[C@H]2CC[C@H](N3C(=S)N(c4cnc(C#N)c(C(F)(F)F)c4)C(=O)C3(C)C)CC2)C[C@H](C)N1CC(=O)Nc1ccc(C2CCC(=O)NC2=O)nc1 (some centres unmarked) [Cmpd 28] and give its measured remaining activity at up to 5 µM.
RESULT: 20 to 30%

QUERY: Consider the compound C[C@@H]1CN(CCCC[C@H]2CC[C@H](N3C(=S)N(c4ccc(C#N)c(C(F)(F)F)c4)C(=O)C3(C)C)CC2)C[C@H](C)N1CC(=O)Nc1ccc(C2CCC(=O)NC2=O)nc1 (some centres unmarked) [Cmpd 16] and give its measured remaining activity at up to 5 µM.
RESULT: 20 to 30%
